Tested on: MCF7
Test Summary: NCI tumour cell line growth inhibition, 48 h
Activity calls are given as the source filed them. No stated cut-off is given here; in the data, active = GI50 up to about 1.1 µM and inactive = higher.
Measured GI50 by item
Test Readout: GI50

INSERT INTO measurements (molecule, result) VALUES
  ('N=C1OC(c2c[nH]c3ccc(OCc4ccccc4)cc23)C(O)=C1O (stereo not given)', '> 100 µM (inactive)'),
  ('CC1(C)C(CC(=O)O)CCCC1CC(=O)O (stereo not given)', '> 100 µM (inactive)'),
  ('COc1cc(OC)c2nc(C)c(CCCl)c(Cl)c2c1', '> 100 µM (inactive)'),
  ('COC(=O)c1ccccc1CC1Cc2ccc3c(c2C1=O)CCCC3 (stereo not given)', '37.4 µM (inactive)'),
  ('CC(=O)Oc1ccc(-c2c(OC(C)=O)c(OC(C)=O)c(-c3ccc(OC(C)=O)c(OC(C)=O)c3)c(OC(C)=O)c2OC(C)=O)cc1', '23.7 µM (inactive)');

src = ChEMBL document CHEMBL1201862
